Just for reference, patent US20110319392A1 is where these values come from.

Provide the reported pIC50 of each item.
Tested on: A375P F11s tumor cells
measurement_notes: Cell growth inhibition assay (CellTiter-Glo), A375P F11s
Assay type: cell-based, Human
measurement_context: Homo sapiens
Method: Human breast tumor cells (BT474) were cultured in RPMI (Mediatech […]), containing 10% FBS (JRH Biosciences 12176) and 1% penicillin-streptomycin (Invitrogen 15140). […] Cells were harvested using trypsin/EDTA (Invitrogen 25200), counted using a haemocytometer, and plated. […] Total ATP was measured (as a surrogate estimate of cell number) using CellTiter-Glo® reagent (Promega G7571). […] Percent inhibition of cell growth was calculated relative to DMSO vehicle-treated control wells. […]
pIC50: −log10 of the molar value.

Ask: Please list pIC50 recorded for the compound CS(=O)(=O)CCN1CCN(c2ccc(Nc3nccc(-c4oc(N5CCCC5)nc4-c4cccc(NS(=O)(=O)c5c(F)cccc5F)c4F)n3)cc2F)CC1
Reply: > 7.00

Ask: Please list pIC50 recorded for the compound CC(=O)N1CCN(c2ccc(Nc3nccc(-c4sc(C(C)C)nc4-c4cccc(NS(=O)(=O)c5cc(F)ccc5F)c4)n3)cn2)CC1
Reply: > 7.00

Ask: Please list pIC50 recorded for the compound Nc1nc(-c2cccc(NS(=O)(=O)c3c(F)cccc3F)c2)c(-c2ccnc(Nc3ccc(N4CCOCC4)nc3)n2)s1
Reply: > 7.00

Ask: Please list pIC50 recorded for the compound O=S(=O)(Nc1cc(-c2nc(N3CCOCC3)sc2-c2ccnc(Nc3ccc(N4CCOCC4)nc3)n2)ccc1F)c1c(F)cccc1F
Reply: 6.00 to 7.00

Ask: Please list pIC50 recorded for the compound CC(=O)N1CCN(c2ccc(Nc3nccc(-c4sc(C(C)C)nc4-c4cccc(NS(=O)(=O)c5cccc(F)c5)c4)n3)cn2)CC1
Reply: > 7.00

Ask: Please list pIC50 recorded for the compound COc1c(NS(=O)(=O)c2c(F)cccc2F)cccc1-c1nc(N2CCOCC2)sc1-c1ccnc(Nc2ccc3c(c2)OCCO3)n1
Reply: 6.00 to 7.00
